Values compiled from paper PMC6916368.

target: β5c subunit of isolated human 20S proteasome (Homo sapiens); construct: purchased Enzo Life Sciences; experiment: Proteasome inhibition assay (20 S Proteasome Assay Kit, Suc‐LLVY‐AMC); format: biochemical; details: c = 1 µM, n=1; read-out: Inhibition cCP β5
Assay metric: inhibition at 1 µM (%)
Hi! Could you send only the number? It should be in %, unit omitted.

| Compound | Uom | inhibition at 1 µM |
| --- | --- | --- |
| CC(C)C[C@@H](C=O)NC(=O)[C@H](CC(C)C)NC(=O)[C@H](CC(C)C)NC(=O)Cn1cnc2ccccc2c1=O | % | 43 |
| CC(C)C[C@H](NC(=O)[C@H](Cc1ccccc1)NC(=O)c1cnccn1)B(O)O [Bortezomib 1, Bortezomib, reference compound] | % | 98 |
| CC(C)C[C@H](NC(=O)[C@H](CCc1ccccc1)NC(=O)CN1CCOCC1)C(=O)N[C@@H](Cc1ccccc1)C(=O)N[C@@H](CC(C)C)C(=O)[C@@]1(C)CO1 | % | 96 |
| Cc1c(NC(=O)C(=O)[C@H](CC(C)C)NC(=O)[C@H](CC(C)C)NC(=O)[C@H](CC(C)C)NC(=O)OCc2ccccc2)cccc1Oc1ccccc1 | % | 78 |
| Cc1cc(C)c(Oc2ccccc2)cc1NC(=O)C(=O)[C@H](CC(C)C)NC(=O)[C@H](CC(=O)OC(C)(C)C)NC(=O)[C@H](CC(C)C)NC(=O)c1cc(Cl)ccc1Cl | % | 53 |

Query compound follows.
So what's the measured inhibition at 1 µM for this one? CC(C)C[C@H](NC(=O)OCc1ccccc1)C(=O)N[C@@H](CC(C)C)C(=O)N[C@@H](CC(C)C)C(=O)C(=O)Nc1ccccc1Oc1ccccc1
32

* * *

target: β1c subunit of isolated human 20S proteasome (Homo sapiens); construct: purchased Enzo Life Sciences; experiment: Proteasome inhibition assay (20 S Proteasome Assay Kit, Z‐LLE‐AMC); type: biochemical; details: c = 1 µM, n=1; read-out: Inhibition cCP β1
Peptide text beside a SMILES is read from it. * marks the point of attachment. Cbz = O=C(OCc1ccccc1)*; OtBu = CC(C)(C)O*
This listing pairs compounds with measured inhibition at 1 µM.
Hi! Could you send only the number? It should be in %, unit omitted.

So what's the measured inhibition at 1 µM for this one? Cc1cc(C)c(Oc2ccccc2)cc1NC(=O)C(=O)[C@H](CC(C)C)NC(=O)[C@H](CC(C)C)NC(=O)[C@H](CC(C)C)NC(=O)OCc1ccccc1
-10

Would you mind doing Cc1ccc(NC(=O)C(=O)[C@H](CC(C)C)NC(=O)[C@H](CC(C)C)NC(=O)[C@H](CC(C)C)NC(=O)OCc2ccccc2)c(C)c1Oc1ccccc1 as well?
-33

Would you mind doing Cc1cc(C)c(Oc2ccccc2)cc1NC(=O)C(=O)[C@H](CC(C)C)NC(=O)[C@H](CC(=O)OC(C)(C)C)NC(=O)[C@H](CC(C)C)NC(=O)c1cc(Cl)ccc1Cl as well?
-19

Would you mind doing CC(C)C[C@H](NC(=O)OCc1ccccc1)C(=O)N[C@@H](CC(=O)OC(C)(C)C)C(=O)N[C@@H](CC(C)C)C(=O)C(=O)Nc1ccccc1Oc1ccccc1 as well?
-12

Would you mind doing Cc1cc(C)c(Oc2ccccc2)cc1NC(=O)C(=O)[C@H](CC(C)C)NC(=O)[C@H](CC(=O)OC(C)(C)C)NC(=O)[C@H](CC(C)C)NC(=O)OCc1ccccc1 as well?
-4

Would you mind doing CC(C)C[C@H](NC(=O)OCc1ccccc1)C(=O)N[C@@H](CC(C)C)C(=O)N[C@@H](CC(C)C)C(=O)C(=O)Nc1ccccc1Oc1ccccc1 as well?
-7

Would you mind doing CC(C)C[C@H](NC(=O)OCc1ccccc1)C(=O)N[C@@H](CC(=O)OC(C)(C)C)C(=O)N[C@@H](CC(C)C)C(=O)C(=O)Nc1ccc(Oc2ccccc2)cc1 as well?
-24

Would you mind doing CC(C)C[C@@H](C=O)NC(=O)[C@H](CC(=O)OC(C)(C)C)NC(=O)[C@H](CC(C)C)NC(=O)OCc1ccccc1 [Compound 5, BSc2118, reference compound] (Cbz-Leu-Asp(OtBu)-Leu-aldehyde) as well?
16

Would you mind doing CC(C)C[C@H](NC(=O)[C@H](Cc1ccccc1)NC(=O)c1cnccn1)B(O)O [Bortezomib 1, Bortezomib, reference compound] as well?
80

Would you mind doing Cc1cc(C)c(Oc2ccccc2)cc1NC(=O)C(=O)[C@H](CC(C)C)NC(=O)[C@H](CC(C)C)NC(=O)[C@H](CC(C)C)NC(=O)c1cc(Cl)ccc1Cl as well?
-48

Would you mind doing Cc1ccc(NC(=O)C(=O)[C@H](CC(C)C)NC(=O)[C@H](CC(C)C)NC(=O)[C@H](CC(C)C)NC(=O)c2cc(Cl)ccc2Cl)c(C)c1 as well?
-38

Would you mind doing CC(C)C[C@H](NC(=O)OCc1ccccc1)C(=O)N[C@@H](CC(C)C)C(=O)N[C@@H](CC(C)C)C(=O)C(=O)Nc1cccc(Oc2ccccc2)c1 as well?
0

Would you mind doing Cc1ccc(Oc2ccccc2)cc1NC(=O)C(=O)[C@H](CC(C)C)NC(=O)[C@H](CC(C)C)NC(=O)[C@H](CC(C)C)NC(=O)OCc1ccccc1 as well?
-2

Would you mind doing Cc1ccc(NC(=O)C(=O)[C@H](CC(C)C)NC(=O)[C@H](CC(=O)OC(C)(C)C)NC(=O)[C@H](CC(C)C)NC(=O)c2cc(Cl)ccc2Cl)c(C)c1 as well?
-10
